# target.of.assay: Bek (Homo sapiens)
# Sequence (P21802 431-767 limits assumed): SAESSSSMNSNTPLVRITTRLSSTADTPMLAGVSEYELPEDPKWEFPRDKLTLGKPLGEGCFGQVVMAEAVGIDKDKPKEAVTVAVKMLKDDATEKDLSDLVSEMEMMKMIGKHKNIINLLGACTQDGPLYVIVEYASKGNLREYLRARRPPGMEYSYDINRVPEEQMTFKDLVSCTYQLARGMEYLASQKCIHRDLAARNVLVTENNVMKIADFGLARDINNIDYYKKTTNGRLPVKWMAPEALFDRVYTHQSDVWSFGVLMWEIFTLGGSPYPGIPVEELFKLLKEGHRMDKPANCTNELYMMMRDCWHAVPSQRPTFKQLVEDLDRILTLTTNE
# experiment.notes: Inhibitory activity against Bek-autophosphorylation using ELISA method in OCUM-2MD3 cells
# condition.info: 1 hr with compound, read-out: IC50 (concentration necessary for inhibiting 50% of Bek-phosphorylation)
What pIC50 was measured for each of the following?
Numbers only, as −log10 of the molar value.

1. COc1cc2nccc(Oc3ccc(Nc4ccc(C(C)(C)C)cc4)cc3)c2cc1OCC(O)CN1CCOCC1 (stereo not shown) = 6.90
2. CCN(CC)CCCOc1cc2nccc(Oc3ccc(NC(=O)NCCC(C)(C)C)c(Cl)c3)c2cc1OC = 7.81

Then there is this compound:
**Query** For the compound "COc1cc2c(Oc3ccc(Nc4ccc(C(C)(C)C)cc4)cc3)ccnc2cc1OCCCCN1CCN(C)CC1" , report pIC50.
**Result** 6.03
